Listed below: EC50 values for each entry.
Tested on: TNFα
Experiment: cells
Type: cell-based, human
Conditions: Homo sapiens, Monocyte, LPS-stimulated human monocytes, TNFα content; read-out: EC50 TNF
State the answer as a number, implicitly in nM.

Record excerpt, results attached:
                                   molecule  test_readout  data_value
0  CC(C)(O)[C@H](F)CNC(=O)c1cnc(-c2ccc3cc(C#N)cnn23)cc1Nc1cnn(C2CCNCC2)c1 [Example 236]          EC50         379
1  CC(C)(O)[C@H](F)CNC(=O)c1cnc(-c2ccc3cc(C#N)cnn23)cc1Nc1ccc2c(c1)NC(=O)C2 [Example 573]          EC50          24
2  CC(C)Nc1cc(-c2ccc3cc(C#N)cnn23)ncc1C(=O)NCCC1(O)CCC1 [Example 91]          EC50          62
3  CC(C)(O)[C@H](F)CNC(=O)c1cnc(-c2ccc3cc(C#N)cnn23)cc1NCc1c[nH]cn1 [Example 105]          EC50        3160
4  CC1(O)CC2(CC(Nc3cc(-c4ccc5cc(C#N)cnn45)ncc3C(=O)NCC#N)C2)C1 (stereo not shown) [Example 452]          EC50         112
5  CC(C)(O)[C@H](F)CNC(=O)c1cnc(-c2ccc3cc(C#N)cnn23)cc1Nc1ccc(N)nc1 [Example 657]          EC50          23

What value of EC50 has been recorded for this entry: CC(=O)N[C@H]1CC[C@H](NC(=O)c2cnc(-c3ccc4cc(C#N)cnn34)cc2NC(C)C)CC1 [Example 13]
79

----------
Biological target: IRAK4 enzyme (Homo sapiens (Human), UniProt Q9NWZ3)
Sequence (Q9NWZ3 whole entry): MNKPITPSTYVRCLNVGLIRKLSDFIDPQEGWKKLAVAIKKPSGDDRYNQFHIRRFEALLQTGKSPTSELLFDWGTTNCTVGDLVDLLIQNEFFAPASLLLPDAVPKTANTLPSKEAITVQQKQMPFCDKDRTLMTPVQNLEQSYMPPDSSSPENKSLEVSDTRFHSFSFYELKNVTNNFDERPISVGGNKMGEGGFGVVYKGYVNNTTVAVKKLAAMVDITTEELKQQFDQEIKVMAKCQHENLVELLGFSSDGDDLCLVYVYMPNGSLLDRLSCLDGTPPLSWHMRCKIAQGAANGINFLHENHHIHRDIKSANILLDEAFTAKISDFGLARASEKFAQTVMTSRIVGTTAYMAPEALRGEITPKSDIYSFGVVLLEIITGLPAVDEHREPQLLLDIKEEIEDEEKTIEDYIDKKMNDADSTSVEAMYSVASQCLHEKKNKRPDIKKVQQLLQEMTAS
Experiment: biochemical
Format: biochemical
Details: IRAK4 enzyme, TR-FRET, 500 μM ATP
test_readout: IC50 (nM)
Give just the numeric value; nM need not be written.

>>> df
                                   compound                             tested_target  test_readout  unit_abbrev  data_value
0  CC(C)(N)CCNC(=O)c1cnc(-c2ccc3cc(C#N)cnn23)cc1NC12CCC(O)(CC1)CC2  IRAK4 enzyme (Homo sapiens (Human), UniProt Q9NWZ3)          IC50           nM           1
1  NC(=O)c1cnn2c(-c3cc(NC45CCC(O)(CC4)CC5)c(C(=O)NCC(F)(F)C(=O)N4CC(F)(F)C4)cn3)ccc2c1  IRAK4 enzyme (Homo sapiens (Human), UniProt Q9NWZ3)          IC50           nM         394
2  CC(C)Nc1cc(-c2ccc3cc(C#N)cnn23)ncc1C(=O)N[C@H]1CC[C@H](NC(=O)N2CCOCC2)CC1  IRAK4 enzyme (Homo sapiens (Human), UniProt Q9NWZ3)          IC50           nM           1
3  CNC(=O)c1cnc(-c2ccc3cc(C#N)cnn23)cc1NC(C)C  IRAK4 enzyme (Homo sapiens (Human), UniProt Q9NWZ3)          IC50           nM           2
4  COC(=O)N1Cc2ccc(Nc3cc(-c4ccc5cc(C#N)cnn45)ncc3C(=O)NC[C@@H](F)C(C)(C)O)cc2C1  IRAK4 enzyme (Homo sapiens (Human), UniProt Q9NWZ3)          IC50           nM           2

IC50 for CC(=O)NC12CC(Nc3cc(-c4ccc5cc(C#N)cnn45)ncc3C(=O)NCC(F)(F)F)(C1)C2 ?
5

Would you mind telling me what IC50 value was observed for CC1(O)CN(C(=O)C23CCC(Nc4cc(-c5ccc6cc(C#N)cnn56)ncc4C(=O)NC[C@@H](F)C(C)(C)O)(CC2)CC3)C1 ?
1

Give the measured IC50 of CC(=O)NC12CC(NC(=O)c3cnc(-c4ccc5cc(C#N)cnn45)cc3NC(C)C)(C1)C2 .
5

Endpoint output: IC50 of Cn1cnc(CNC(=O)c2cnc(-c3ccc4cc(C#N)cnn34)cc2NC23CCC(O)(CC2)CC3)c1 . Value?
1

I'd like to know its IC50. The compound in question is COC(=O)N1CCC12CC(Nc1cc(-c3ccc4cc(C#N)cnn34)ncc1C(=O)NC[C@@H](F)C(C)(C)O)C2 (some centres unmarked) [Example 912]
6

----------
System: TNFα
Experiment: cells
Type: cell-based, human
Details: Homo sapiens, Monocyte, LPS-stimulated human monocytes, TNFα content; read-out: EC50 TNF
# key: entry, value: EC50
Express it in nM; write the number only.

Reference set (2 entries):
>>> print(df.to_string())
                                   compound  unit_abbrev  data_value
0  CC(C)(O)[C@H](F)CNC(=O)c1cnc(-c2ccc3cc(C#N)cnn23)cc1N[C@@H]1CC2CN(C(N)=O)C[C@H]2C1 (stereo partly drawn)           nM         225
1  CC(=O)NC12CC(Nc3cc(-c4ccc5cc(C#N)cnn45)ncc3C(=O)N[C@H]3CC[C@H](C(=O)N4CC(F)(F)C4)CC3)(C1)C2           nM          73

Recorded EC50 for CC(C)(O)[C@H](F)CNC(=O)c1cnc(-c2ccc3cc(C#N)cnn23)cc1NC1CC1CO (stereo partly drawn) [Example 303] , please?
26

Any idea what its EC50 is? The compound is CC(C)(O)[C@H](F)CNC(=O)c1cnc(-c2ccc3cc(C#N)cnn23)cc1Nc1ccc(Cn2ccccc2=O)cc1
11

Form field: reported EC50 of COC(=O)NCc1ccc(Nc2cc(-c3ccc4cc(C#N)cnn34)ncc2C(=O)NC[C@@H](F)C(C)(C)O)cc1
6

Which EC50 value belongs to CC(C)(C)OC(=O)NC[C@H]1C[C@H](Nc2cc(-c3ccc4cc(C#N)cnn34)ncc2C(=O)NC[C@@H](F)C(C)(C)O)C1 ?
149

Could you share which EC50 value was measured for CC(C)(O)[C@H](F)CNC(=O)c1cnc(-c2ccc3cc(C#N)cnn23)cc1N[C@@H]1CCCNC1 ?
1270

Return reported EC50; argument: CC(C)(O)[C@H](F)CNC(=O)c1cnc(-c2ccc3cc(C#N)cnn23)cc1NC1CCCC(S(C)(=O)=O)C1 (single isomer, unassigned)
526

----------
Test system: TNFα
Assay: cells
Type: cell-based, human
Conditions: Homo sapiens, Monocyte, LPS-stimulated human monocytes, TNFα content; read-out: EC50 TNF
The following compounds are shown together with reported pEC50 values.
Keep in mind that pEC50 stands for -log10 of concentration in molar terms.

>>> df
                                   compound  data_value
0  CNC(=O)OC12CCC(Nc3cc(-c4ccc5cc(C#N)cnn45)ncc3C(=O)NC[C@@H](F)C(C)(C)O)(CC1)CC2        7.36
1  CC(C)(O)[C@H](F)CNC(=O)c1cnc(-c2ccc3cc(C#N)cnn23)cc1Nc1ncccn1        6.82
2  CC(C)(O)[C@H](F)CNC(=O)c1cnc(-c2ccc3cc(C#N)cnn23)cc1N[C@@H]1CCC[C@@H](O)C1        7.05
3  CC(C)(O)[C@H](F)CNC(=O)c1cnc(-c2ccc3cc(C#N)cnn23)cc1N[C@H]1CC[C@H](NC(=O)OC2CCC2)CC1        7.27
4  CC(C)(O)[C@H](F)CNC(=O)c1cnc(-c2ccc3cc(C#N)cnn23)cc1NC1CC2CCC(C1)O2 (stereo partly shown)        6.45
5  COC(=O)N[C@]1(C)CC[C@H](Nc2cc(-c3ccc4cc(C#N)cnn34)ncc2C(=O)NC[C@@H](F)C(C)(C)O)CC1        6.77

Turning to the following compound.
# input compound: CC(=O)NC12CCC(Nc3cc(-c4ccc5cc(C#N)cnn45)ncc3C(=O)NCC#N)(CC1)CC2 ; wanted: its pEC50
7.57

----------
Tested on: TNFα
Test: cells
Assay type: cell-based, human
Conditions: Homo sapiens, Monocyte, LPS-stimulated human monocytes, TNFα by TR-FRET; read-out: EC50 TNF
A collection of molecules and their measured EC50
Reply with just the number (in nM).

// worked examples, EC50 included
                                   molecule  tested_target  data_value
0  N#Cc1cnn2c(-c3cc(NC45CCC(O)(CC4)CC5)c(C(=O)NCc4ncccn4)cn3)ccc2c1           TNFα         269
1  CC(C)(O)[C@H](F)CNC(=O)c1cnc(-c2ccc3cc(C#N)cnn23)cc1Nc1ccc(N2CC3CC(C2)O3)nc1           TNFα          42
2  C[C@H](NC(=O)c1cnc(-c2ccc3cc(C#N)cnn23)cc1NC12CCC(O)(CC1)CC2)C(=O)N1CCOCC1           TNFα         836
3  COc1cc(Nc2cc(-c3ccc4cc(C#N)cnn34)ncc2C(=O)NC[C@@H](F)C(C)(C)O)ncn1           TNFα          97
4  COC(=O)NCc1ccc(Nc2cc(-c3ccc4cc(C#N)cnn34)ncc2C(=O)NC[C@@H](F)C(C)(C)O)cc1F           TNFα          23
5  CN1CCN(C(=O)CCNC(=O)c2cnc(-c3ccc4cc(C#N)cnn34)cc2NC23CCC(O)(CC2)CC3)CC1           TNFα         349
6  CC(C)(O)[C@H](F)CNC(=O)c1cnc(-c2ccc3cc(C#N)cnn23)cc1Nc1cnc(Cl)cn1           TNFα          57
7  CC(C)(O)[C@H](F)CNC(=O)c1cnc(-c2ccc3cc(C#N)cnn23)cc1NC1CC2(CCN2)C1 (stereo partly drawn)           TNFα         611

We next turn to a different molecule, shown below.
I'd like to know its EC50. The molecule in question is N#Cc1cnn2c(-c3cc(NC45CCC(O)(CC4)CC5)c(C(=O)NC[C@@H](F)C(=O)N4CC(F)(F)C4)cn3)ccc2c1
207
